Test system: 171881-019-R-J1-PDC tumor spheroids, viability
Experiment: Anticancer human tumor 171881-019-R-J1-PDC patient-derived invasive breast carcinoma cell line growth inhibition [GQUAD]
Settings: second compound 1 µM; first compound 1 µM; hits give low values; spheroids with HUVEC and MSC
Description: DNA G-quadruplex Stabilizer Agents in Combinations in Complex Spheroids A high-throughput screen of multi-cell type tumor spheroids was designed to identify active combinations of DNA G-quadruplex stabilizer agents and targeted small molecules. […] Compounds. […] If the clinical Cmax for an agent had not been determined, the highest concentration tested was 10 microM. […]
Assignment: determine reported viability, T/C for the given molecules.
Return type: number; implicit unit %.

[in] # query: viability, T/C | item CC(C)n1c(=O)n(C)c2cnc3cc(F)c(-c4ccc(OCCCN5CCCCC5)nc4)cc3c21 + CN(C)c1ccc(Nc2c3ccc(NC(=O)CCN4CCCC4)cc3nc3cc(NC(=O)CCN4CCCC4)ccc23)cc1 | system: 171881-019-R-J1-PDC tumor spheroids, viability
[out] 8.58

[in] # query: viability, T/C | item CC1COCCN1c1cc(-c2ccnn2C)c2ccnc(-c3ccn[nH]3)c2n1 (stereo unspecified) + Cc1[nH]c2ccc(F)cc2c1-c1nc2c3cccnc3c3ncccc3c2[nH]1 | system: 171881-019-R-J1-PDC tumor spheroids, viability
[out] 9.37

[in] # query: viability, T/C | item COc1cc(C2c3cc4c(cc3C(OC3OC5COC(C)OC5C(O)C3O)C3COC(=O)C23)OCO4)cc(OC)c1O (stereo unspecified) + Cc1[nH]c2ccc(F)cc2c1-c1nc2c3cccnc3c3ncccc3c2[nH]1 | system: 171881-019-R-J1-PDC tumor spheroids, viability
[out] 45.2

[in] # query: viability, T/C | item CC(C)(O)C1CCC(Nc2ccc3ncc(-c4cccc(C(F)(F)F)c4)n3n2)CC1 (stereo unspecified) + Cc1cnc(CNC(=O)c2c(=O)c3ccc(N4CCCN(C)CC4)nc3n3c2sc2ccccc23)cn1 | system: 171881-019-R-J1-PDC tumor spheroids, viability
[out] 56.3

[in] # query: viability, T/C | item CCCS(=O)(=O)Nc1ccc(F)c(C(=O)c2c[nH]c3ncc(-c4ccc(Cl)cc4)cc23)c1F + Cc1[nH]c2ccc(F)cc2c1-c1nc2c3cccnc3c3ncccc3c2[nH]1 | system: 171881-019-R-J1-PDC tumor spheroids, viability
[out] 80.7

[in] # query: viability, T/C | item CC(=O)O[C@H]1C(=O)[C@@]2(C)[C@H]([C@H](OC(=O)c3ccccc3)[C@]3(O)C[C@H](OC(=O)[C@H](O)[C@@H](NC(=O)c4ccccc4)c4ccccc4)C(C)=C1C3(C)C)[C@]1(OC(C)=O)CO[C@@H]1C[C@@H]2O + Cc1[nH]c2ccc(F)cc2c1-c1nc2c3cccnc3c3ncccc3c2[nH]1 | system: 171881-019-R-J1-PDC tumor spheroids, viability
[out] 24.9

[in] # query: viability, T/C | item COc1ncnc(C2CC2)c1-c1ncc2cnn(Cc3ccc(-c4nc(C(F)(F)F)cn4C(C)C)cc3)c2n1 + Cc1cnc(CNC(=O)c2c(=O)c3ccc(N4CCCN(C)CC4)nc3n3c2sc2ccccc23)cn1 | system: 171881-019-R-J1-PDC tumor spheroids, viability
[out] 62.6

[in] # query: viability, T/C | item Cc1cccc(N(C)C(=O)C2C(O)CCN2c2nc(C)cc(C(F)(F)F)c2C#N)c1 (stereo unspecified) + Cc1[nH]c2ccc(F)cc2c1-c1nc2c3cccnc3c3ncccc3c2[nH]1 | system: 171881-019-R-J1-PDC tumor spheroids, viability
[out] 74.6

[in] # query: viability, T/C | item CC(C)n1c(=O)n(C)c2cnc3cc(F)c(-c4ccc(OCCCN5CCCCC5)nc4)cc3c21 + Cc1[nH]c2ccc(F)cc2c1-c1nc2c3cccnc3c3ncccc3c2[nH]1 | system: 171881-019-R-J1-PDC tumor spheroids, viability
[out] 68

[in] # query: viability, T/C | item C=CCn1c(=O)c2cnc(Nc3ccc(N4CCN(C)CC4)cc3)nc2n1-c1cccc(C(C)(C)O)n1 + Cc1[nH]c2ccc(F)cc2c1-c1nc2c3cccnc3c3ncccc3c2[nH]1 | system: 171881-019-R-J1-PDC tumor spheroids, viability
[out] 25.5

[in] # query: viability, T/C | item CC1COCCN1c1cc(C2(S(C)(=N)=O)CC2)nc(-c2ccnc3[nH]ccc23)n1 (stereo unspecified) + Cc1[nH]c2ccc(F)cc2c1-c1nc2c3cccnc3c3ncccc3c2[nH]1 | system: 171881-019-R-J1-PDC tumor spheroids, viability
[out] 41

----------
Tested on: 171881-019-R-J1-PDC tumor spheroids, viability
Assay: Anticancer human tumor 171881-019-R-J1-PDC cell line growth inhibition [GQUAD]; active = viability on the fitted dose curve at most 10% of control; inactive = the rest;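 note: spheroids exposed to compounds for 7 days; 100% = DMSO vehicle control viability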
Conditions: second compound 10 µM; first compound 10 µM; spheroids with HUVEC and MSC
Pick one: active, inactive

[in] Call for entry O=C(NO)c1cnc(N2CCN(S(=O)(=O)c3ccc4ccccc4c3)CC2)nc1 + Cc1cnc(CNC(=O)c2c(=O)c3ccc(N4CCCN(C)CC4)nc3n3c2sc2ccccc23)cn1 :
[out] active

[in] Call for entry C#Cc1c(F)ccc2cc(O)cc(-c3ncc4c(N5CC6CCC(C5)N6)nc(OCC56CCCN5CC(F)C6)nc4c3F)c12 (stereo not given) + Cc1cnc(CNC(=O)c2c(=O)c3ccc(N4CCCN(C)CC4)nc3n3c2sc2ccccc23)cn1 :
[out] inactive

[in] Call for entry C=CCn1c(=O)c2cnc(Nc3ccc(N4CCN(C)CC4)cc3)nc2n1-c1cccc(C(C)(C)O)n1 + Cc1cnc(CNC(=O)c2c(=O)c3ccc(N4CCCN(C)CC4)nc3n3c2sc2ccccc23)cn1 :
[out] inactive

[in] Call for entry CC1COCCN1c1cc(C2(O)CC3CCC(C2)O3)c2cnn(-c3ccn[nH]3)c2n1 (stereo not given) + Cc1[nH]c2ccc(F)cc2c1-c1nc2c3cccnc3c3ncccc3c2[nH]1 :
[out] active

[in] Call for entry C=CC(=O)N1CCN(c2nc(=O)n(-c3c(C)ccnc3C(C)C)c3nc(-c4c(O)cccc4F)c(F)cc23)C(C)C1 (stereo not given) + Cc1[nH]c2ccc(F)cc2c1-c1nc2c3cccnc3c3ncccc3c2[nH]1 :
[out] inactive

----------
Test system: 171881-019-R-J1-PDC tumor spheroids, viability
Test: Anticancer human tumor 171881-019-R-J1-PDC cell line growth inhibition [GQUAD];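 note: spheroids exposed to compounds for 7 days; 100% = DMSO vehicle control viability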
Settings: second compound 0.316 µM; first compound 1 µM; hits give low values; spheroids with HUVEC and MSC
Text: DNA G-quadruplex Stabilizer Agents in Combinations in Complex Spheroids A high-throughput screen of multi-cell type tumor spheroids was designed to identify active combinations of DNA G-quadruplex stabilizer agents and targeted small molecules. […] Compounds. […] If the clinical Cmax for an agent had not been determined, the highest concentration tested was 10 microM. […]
Assignment: determine reported viability, T/C for the given compounds.
Return type: number; implicit unit %.

[in] Item under review: COc1ccc([C@@H](O)c2cc(-c3ncnc4cc(N5CCOCC5)ccc34)c(F)cc2Cl)nn1 + CN(C)c1ccc(Nc2c3ccc(NC(=O)CCN4CCCC4)cc3nc3cc(NC(=O)CCN4CCCC4)ccc23)cc1 . Reported viability, T/C?
[out] 18.2

[in] Item under review: COc1ncnc(C2CC2)c1-c1ncc2cnn(Cc3ccc(-c4nc(C(F)(F)F)cn4C(C)C)cc3)c2n1 + CN(C)c1ccc(Nc2c3ccc(NC(=O)CCN4CCCC4)cc3nc3cc(NC(=O)CCN4CCCC4)ccc23)cc1 . Reported viability, T/C?
[out] 28.8

[in] Item under review: CC(C)(O)C1CCC(Nc2ccc3ncc(-c4cccc(C(F)(F)F)c4)n3n2)CC1 (stereo not given) + CN(C)c1ccc(Nc2c3ccc(NC(=O)CCN4CCCC4)cc3nc3cc(NC(=O)CCN4CCCC4)ccc23)cc1 . Reported viability, T/C?
[out] 22.2

[in] Item under review: CCCS(=O)(=O)Nc1ccc(F)c(C(=O)c2c[nH]c3ncc(-c4ccc(Cl)cc4)cc23)c1F + CN(C)c1ccc(Nc2c3ccc(NC(=O)CCN4CCCC4)cc3nc3cc(NC(=O)CCN4CCCC4)ccc23)cc1 . Reported viability, T/C?
[out] 44.1

[in] Item under review: Cc1cccc(N(C)C(=O)C2C(O)CCN2c2nc(C)cc(C(F)(F)F)c2C#N)c1 (stereo not given) + CN(C)c1ccc(Nc2c3ccc(NC(=O)CCN4CCCC4)cc3nc3cc(NC(=O)CCN4CCCC4)ccc23)cc1 . Reported viability, T/C?
[out] 75.1

[in] Item under review: O=c1[nH]cc(F)c(=O)[nH]1 + CN(C)c1ccc(Nc2c3ccc(NC(=O)CCN4CCCC4)cc3nc3cc(NC(=O)CCN4CCCC4)ccc23)cc1 . Reported viability, T/C?
[out] 55.4

[in] Item under review: Nc1ccn(C2OC(CO)C(O)C2(F)F)c(=O)n1 (stereo not given) + Cc1cnc(CNC(=O)c2c(=O)c3ccc(N4CCCN(C)CC4)nc3n3c2sc2ccccc23)cn1 . Reported viability, T/C?
[out] 37.9

[in] Item under review: C#Cc1c(F)ccc2cc(O)cc(-c3ncc4c(N5CC6CCC(C5)N6)nc(OCC56CCCN5CC(F)C6)nc4c3F)c12 (stereo not given) + Cc1cnc(CNC(=O)c2c(=O)c3ccc(N4CCCN(C)CC4)nc3n3c2sc2ccccc23)cn1 . Reported viability, T/C?
[out] 42

[in] Item under review: O=c1[nH]cc(F)c(=O)[nH]1 + Cc1[nH]c2ccc(F)cc2c1-c1nc2c3cccnc3c3ncccc3c2[nH]1 . Reported viability, T/C?
[out] 52.7

[in] Item under review: CC1COCCN1c1cc(-c2ccnn2C)c2ccnc(-c3ccn[nH]3)c2n1 (stereo not given) + Cc1cnc(CNC(=O)c2c(=O)c3ccc(N4CCCN(C)CC4)nc3n3c2sc2ccccc23)cn1 . Reported viability, T/C?
[out] 9.26
